Where do these numbers come from? They come from patent US10004732B2.

Molecular target: PI 3-kinase gamma (Homo sapiens)
Sequence (P48736 whole entry): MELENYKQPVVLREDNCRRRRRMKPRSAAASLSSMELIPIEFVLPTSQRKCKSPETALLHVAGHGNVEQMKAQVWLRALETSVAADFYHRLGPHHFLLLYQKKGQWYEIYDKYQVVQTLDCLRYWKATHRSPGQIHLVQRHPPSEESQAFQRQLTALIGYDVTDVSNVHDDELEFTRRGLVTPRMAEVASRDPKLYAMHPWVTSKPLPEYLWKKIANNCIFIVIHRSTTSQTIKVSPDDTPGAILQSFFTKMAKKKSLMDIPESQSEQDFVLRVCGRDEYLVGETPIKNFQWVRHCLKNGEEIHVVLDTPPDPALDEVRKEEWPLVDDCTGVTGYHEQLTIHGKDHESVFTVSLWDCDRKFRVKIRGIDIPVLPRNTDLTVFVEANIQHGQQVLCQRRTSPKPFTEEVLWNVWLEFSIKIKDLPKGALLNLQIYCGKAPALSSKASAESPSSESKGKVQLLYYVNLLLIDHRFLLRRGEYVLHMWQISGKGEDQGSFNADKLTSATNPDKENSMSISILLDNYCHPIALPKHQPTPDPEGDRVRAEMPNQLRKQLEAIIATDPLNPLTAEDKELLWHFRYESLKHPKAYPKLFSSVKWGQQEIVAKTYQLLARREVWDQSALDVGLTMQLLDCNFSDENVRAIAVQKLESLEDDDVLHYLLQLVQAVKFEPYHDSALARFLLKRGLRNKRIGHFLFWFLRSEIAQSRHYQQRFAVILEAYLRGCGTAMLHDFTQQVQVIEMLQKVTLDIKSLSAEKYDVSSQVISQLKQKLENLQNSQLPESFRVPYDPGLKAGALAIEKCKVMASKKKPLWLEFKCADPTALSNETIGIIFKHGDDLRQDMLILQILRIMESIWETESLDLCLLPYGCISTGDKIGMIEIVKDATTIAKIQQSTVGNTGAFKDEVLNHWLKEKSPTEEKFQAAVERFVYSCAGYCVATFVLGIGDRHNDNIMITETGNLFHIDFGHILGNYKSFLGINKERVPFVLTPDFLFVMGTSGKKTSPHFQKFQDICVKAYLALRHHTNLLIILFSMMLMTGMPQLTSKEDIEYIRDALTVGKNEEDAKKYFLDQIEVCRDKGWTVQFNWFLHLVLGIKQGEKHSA
Assay: TR-FRET Adapta assay, assay E
Assay type: biochemical
Conditions: read-out: Assay E PI3Kγ IC50
pIC50: −log10 of the molar value. Where a name gives a salt, the structure may show the parent alone.
Threshold rule: pIC50 greater than or equal to 7 is t; below that, f.

- Compound: "Cc1ccc(S(=O)(=O)NCCC(C)(O)C(F)(F)F)cc1-c1cnc(N)c(-n2cncn2)n1 (stereo not shown)"
  Class assignment: "t"
- Compound: "Cc1ccc(S(=O)(=O)N2CC(CO)C2)cc1-c1cnc(N)c(-n2cncn2)n1"
  Class assignment: "t"
- Compound: "Cc1ccc(S(=O)(=O)NCCC(C)(C)O)cc1-c1cnc(N)c(-c2cnn(C)c2C)n1"
  Class assignment: "f"
- Compound: "CCN1CCC[C@@H]1CNS(=O)(=O)c1ccc(C)c(-c2cnc(N)c(-c3cnc(C)s3)n2)c1"
  Class assignment: "t"
- Compound: "CCc1noc(-c2nc(-c3cc(S(=O)(=O)N[C@H]4CC[C@H](O)CC4)ccc3C)cnc2N)n1"
  Class assignment: "t"
- Compound: "Cc1ccc(S(=O)(=O)NCC2(CO)CCOCC2)cc1-c1cnc(N)c(-n2cncn2)n1"
  Class assignment: "t"
- Compound: "Cc1cc(-c2nc(-c3cc(S(=O)(=O)NCCN4CCCC4)ccc3C)cnc2N)ccn1"
  Class assignment: "f"
- Compound: "Cc1ccc(S(=O)(=O)N[C@H]2CC[C@H](O)CC2)cc1-c1cnc(N)c(-c2cnn(C)c2)n1"
  Class assignment: "t"
- Compound: "Cc1cc(-c2nc(-c3cc(S(=O)(=O)NCC(C)(C)CN(C)C)ccc3C)cnc2N)ccn1"
  Class assignment: "f"
- Compound: "Cc1cc(F)c(S(=O)(=O)NCCC(C)(C)O)cc1-c1cnc(N)c(-n2cncn2)n1"
  Class assignment: "t"
- Compound: "Cc1ccc(S(=O)(=O)NC[C@H]2CCOC2)cc1-c1cnc(N)c(-n2cncn2)n1"
  Class assignment: "t"
- Compound: "Cc1cc(-c2nc(-c3cc(S(=O)(=O)NC4CC(F)(F)C4)ccc3C)cnc2N)ccn1"
  Class assignment: "t"
- Compound: "Cc1ccc(S(=O)(=O)NCCC(C)(C)O)cc1-c1cnc(N)c(-c2cnn(Cc3ccncc3)c2)n1"
  Class assignment: "t"
- Compound: "Cc1ccc(S(=O)(=O)NCCC(C)(C)O)cc1-c1cnc(N)c(-c2cc(Cl)cnc2F)n1"
  Class assignment: "f"
- Compound: "Cc1ccc(S(=O)(=O)NCCC(O)C(F)(F)F)cc1-c1cnc(N)c(-c2cnn(C)c2)n1 (stereo not shown)"
  Class assignment: "t"
- Compound: "Cc1ccc(S(=O)(=O)NCC(C)(C)O)cc1-c1cnc(N)c(-c2cnn(CC(F)(F)F)n2)n1"
  Class assignment: "t"
- Compound: "Cc1ccc(S(=O)(=O)NCC2CCCCO2)cc1-c1cnc(N)c(-n2cncn2)n1 (stereo not shown)"
  Class assignment: "t"
- Compound: "Cc1ccc(S(=O)(=O)NCCN)cc1-c1cnc(N)c(-n2cncn2)n1 [Example 33, trifluoroacetic acid salt]"
  Class assignment: "t"
- Compound: "CCN1CCC[C@@H]1CNS(=O)(=O)c1ccc(C)c(-c2cnc(N)c(-c3ccnc(C)c3)n2)c1"
  Class assignment: "t"
- Compound: "CC[C@H](CO)NS(=O)(=O)c1ccc(C)c(-c2cnc(N)c(-c3ccnc(C)c3)n2)c1"
  Class assignment: "f"
- Compound: "Cc1csc(-c2nc(-c3cc(S(=O)(=O)NCCC(C)(C)O)ccc3C)cnc2N)c1"
  Class assignment: "t"
- Compound: "Cc1ccc(S(=O)(=O)NC[C@@H]2COCCN2)cc1-c1cnc(N)c(-c2cn(C)nc2C)n1"
  Class assignment: "f"
- Compound: "Cc1ccc(S(=O)(=O)N[C@H]2CC[C@H](O)CC2)cc1-c1cnc(N)c(-c2nc(C(C)C)no2)n1"
  Class assignment: "t"
